- System: southern pine beetle
- ASSAY_METHOD_TEXT: Laboratory assay for effectiveness of repellent (circle of compound on cardboard, beetle response)
- Format: in vivo
- CONDITIONS: numerical score for degree of behavioral response, 30-second exposure
Please go through the items and note down their BEHAVIORAL RATING.

What value of BEHAVIORAL RATING has been reported for the following compound? `COc1cccc(CO)c1` 1

Which BEHAVIORAL RATING reading was recorded for the compound `CCc1ccccc1` ? 3

# lookup: BEHAVIORAL RATING of `C=Cc1ccc(OC)cc1` 2

Given `Cc1ccc(C(C)C)cc1` , state its recorded BEHAVIORAL RATING. 2

Which BEHAVIORAL RATING value is on record for `Cc1ccccc1C` ? 2

Query (compound): `CC(C)c1ccccc1` ; field requested: BEHAVIORAL RATING 3

Need BEHAVIORAL RATING of `Cc1ccc(C)cc1` , thanks. 2

What value of measured BEHAVIORAL RATING is listed for `CCOc1ccccc1` ? 2

Which BEHAVIORAL RATING value belongs to `CCCc1ccccc1` ? 1

# lookup: BEHAVIORAL RATING of `Cc1cccc(C)c1` 2

Sample `CCOc1ccccc1OC` — what was its BEHAVIORAL RATING? 2

I would be grateful if you could share the reported BEHAVIORAL RATING for `COc1ccc(C=O)cc1` . 3

Find the recorded BEHAVIORAL RATING belonging to `CCCCc1ccccc1` and report it. 2

Could you tell me which BEHAVIORAL RATING is on file for `CCCc1ccccc1OC` ? 2

Can you look up the measured BEHAVIORAL RATING of `COc1ccc(C(C)(C)C)cc1` for me? 1

What value of BEHAVIORAL RATING has been reported for the following compound? `COc1ccc(C)cc1` 2

Which BEHAVIORAL RATING is reported for this compound? `Cc1ccccc1` 2

Look up BEHAVIORAL RATING: `COCC(=O)c1ccccc1` 2

Need BEHAVIORAL RATING of `COc1ccccc1CO` , thanks. 1

Need BEHAVIORAL RATING, item `COc1cccc(C(C)=O)c1` 2

Please look up its BEHAVIORAL RATING: `CCCc1ccccc1O` 2

Quick one: BEHAVIORAL RATING of `CCc1ccccc1O` ? 2

If you can, please state the reported BEHAVIORAL RATING value of `COc1ccc(C(C)=O)cc1` . 3

Fill in: BEHAVIORAL RATING of `C=Cc1ccc(C)cc1` is ___ 2

Fill in the blank: the reported BEHAVIORAL RATING of `COc1ccccc1C` is ____. 1

---

- ASSAY_METHOD_TEXT: Release rate by gravimetric measurement of pipette bulbs
- Type: physicochemical
- CONDITIONS: elution from 4-ml Samco pipette bulb, preliminary studies
Returns one of criterion met or criterion not met; criterion met when release rate is >= 50 mg/day.

Is release rate for C/C=C/c1ccc(OC)cc1 [trans-anethole] at or above 50 mg/day? criterion not met

Decide: release rate of C=CCc1ccccc1 [allylbenzene] >= 50 mg/day? criterion met

Tell me whether release rate is at least 50 mg/day here: Cc1ccccc1 [toluene] criterion met

Tell me whether release rate is at least 50 mg/day here: COc1ccccc1 [anisole] criterion met

Form field: release rate at least 50 mg/day? Entry: C=Cc1ccc(C)cc1 [4-methylstyrene] criterion met

In plain terms: is recorded release rate at least 50 mg/day for C=CCc1ccc(OC)cc1 [4-allylanisole] ? criterion not met

Answer whether release rate of COc1ccc(C(C)C)cc1 [4-isopropylanisole] is greater than or equal to 50 mg/day. criterion not met

---

- Tested on: southern pine beetle
- ASSAY_METHOD_TEXT: Field assay with frontalure-baited Lindgren funnel traps
- Format: in vivo
- CONDITIONS: TRIAL 6; frontalure plus test compound
Mark each entry 1 (yes) if its rank (relative repellency, 1 = best repellent) sits below 2, and 0 (no) for all others.

For this molecule, is rank (relative repellency, 1 = best repellent) lower than 2? C=CCc1ccc(OC)cc1 [4-allylanisole] 1 (yes)

Consider the molecule C=CCc1ccccc1 [allylbenzene] . Is its rank (relative repellency, 1 = best repellent) strictly less than 2? 0 (no)

Given COc1ccccc1 [anisole] , is recorded rank (relative repellency, 1 = best repellent) strictly lower than 2? 0 (no)

Is rank (relative repellency, 1 = best repellent) strictly under 2 for the entry C/C=C/c1ccc(OC)cc1 [trans-anethole] ? 0 (no)

---

Kindly supply the reported rank (relative repellency, 1 = best repellent) values for the records listed here.
- Tested on: southern pine beetle
- ASSAY_METHOD_TEXT: Field assay with frontalure-baited Lindgren funnel traps
- Type: in vivo
- CONDITIONS: TRIAL 4; frontalure plus test compound
Form: value (number only, do not type unit).

Record lookup: for southern pine beetle, what rank (relative repellency, 1 = best repellent) belongs to C/C=C/c1ccc(OC)cc1 [trans-anethole] ? 4

Enter reported rank (relative repellency, 1 = best repellent) observed with southern pine beetle for `COc1ccc(C(C)C)cc1` 5

What value of rank (relative repellency, 1 = best repellent) on southern pine beetle does `COc1ccccc1` have? 2

Item `C=CCc1ccc(OC)cc1` with southern pine beetle - rank (relative repellency, 1 = best repellent)? 1

Value wanted: rank (relative repellency, 1 = best repellent) (southern pine beetle) of entry `C=Cc1ccc(C)cc1` 3
